assay remarks: Inhibition of Escherichia coli beta-galactosidase
metric name: Kd

1. O=C1c2cc(Cl)c3c4c(Cl)cc5c6c(cc(Oc7ccc(OCc8cn(CCCN9C[C@H](O)[C@@H](O)[C@H](O)[C@H]9CO)nn8)cc7)c(c7c(Oc8ccc(OCc9cn(CCCN%10C[C@H](O)[C@@H](O)[C@H](O)[C@H]%10CO)nn9)cc8)cc(c2c37)C(=O)N1Cc1cn(CCCN2C[C@H](O)[C@@H](O)[C@H](O)[C@H]2CO)nn1)c64)C(=O)N(Cc1cn(CCCN2C[C@H](O)[C@@H](O)[C@H](O)[C@H]2CO)nn1)C5=O    Not Active
2. OCCN1C[C@H](O)[C@@H](O)[C@H](O)[C@H]1CO [MIGLITOL]    Not Active
3. O=C1c2cc(Cl)c3c4c(Oc5ccc(OCc6cn(CCCN7C[C@H](O)[C@@H](O)[C@H](O)[C@H]7CO)nn6)cc5)cc5c6c(cc(Oc7ccc(OCc8cn(CCCN9C[C@H](O)[C@@H](O)[C@H](O)[C@H]9CO)nn8)cc7)c(c7c(Cl)cc(c2c37)C(=O)N1Cc1cn(CCCN2C[C@H](O)[C@@H](O)[C@H](O)[C@H]2CO)nn1)c64)C(=O)N(Cc1cn(CCCN2C[C@H](O)[C@@H](O)[C@H](O)[C@H]2CO)nn1)C5=O    Not Active
4. OCc1cn(CCCN2C[C@H](O)[C@@H](O)[C@H](O)[C@H]2CO)nn1    Not Active

----------
assay remarks: Inhibition of Aspergillus niger alpha-glucosidase
metric name: pKd
Please keep in mind that pKd is minus log10 of the molar concentration; only the number is needed.

Ask: Using the record for O=C1c2cc(Cl)c3c4c(Oc5ccc(OCc6cn(CCCN7C[C@H](O)[C@@H](O)[C@H](O)[C@H]7CO)nn6)cc5)cc5c6c(cc(Oc7ccc(OCc8cn(CCCN9C[C@H](O)[C@@H](O)[C@H](O)[C@H]9CO)nn8)cc7)c(c7c(Cl)cc(c2c37)C(=O)N1Cc1cn(CCCN2C[C@H](O)[C@@H](O)[C@H](O)[C@H]2CO)nn1)c64)C(=O)N(Cc1cn(CCCN2C[C@H](O)[C@@H](O)[C@H](O)[C@H]2CO)nn1)C5=O , report its pKd.
Result: 4.88

Ask: Form field: reported pKd of OCCN1C[C@H](O)[C@@H](O)[C@H](O)[C@H]1CO [MIGLITOL]
Result: 4.69

Ask: Which pKd value belongs to O=C1c2cc(Cl)c3c4c(Cl)cc5c6c(cc(Oc7ccc(OCc8cn(CCCN9C[C@H](O)[C@@H](O)[C@H](O)[C@H]9CO)nn8)cc7)c(c7c(Oc8ccc(OCc9cn(CCCN%10C[C@H](O)[C@@H](O)[C@H](O)[C@H]%10CO)nn9)cc8)cc(c2c37)C(=O)N1Cc1cn(CCCN2C[C@H](O)[C@@H](O)[C@H](O)[C@H]2CO)nn1)c64)C(=O)N(Cc1cn(CCCN2C[C@H](O)[C@@H](O)[C@H](O)[C@H]2CO)nn1)C5=O ?
Result: 4.83

Ask: Tell me the measured pKd of OCc1cn(CCCN2C[C@H](O)[C@@H](O)[C@H](O)[C@H]2CO)nn1 , please.
Result: 4.21
